For reference, IC50 measured on UniProt Q96SW2:
EXPERIMENTAL READOUT: IC50 (nM)

(P) CC(C)c1ccn2ncnc(N[C@H]3CC[C@@H](N4CCN(C(=O)CCC(=O)N5CCC(CCN6CCN(c7ccc8c(c7)C(=O)N(C7CCC(=O)NC7=O)C8=O)CC6)CC5)CC4)CC3)c12 (stereo partly drawn)
(Q) CC(C)c1ccn2ncnc(N[C@H]3CC[C@@H](N4CCN(C(=O)CCC(=O)N5CCC(CN6CCN(c7ccc8c(c7)C(=O)N(C7CCC(=O)NC7=O)C8=O)CC6)CC5)CC4)CC3)c12 (stereo partly drawn)
Thinking about recorded IC50 values, which is higher, P or Q ? # reply format: chosen label Q
(Q: 1200 nM, P: 460 nM)

====

For reference, IC50 measured on Serine/threonine-protein kinase haspin (Homo sapiens, UniProt Q8TF76):
EXPERIMENTAL READOUT: IC50 (µM)

COMPOUND	UNIT	READOUT VALUE
CC(C)c1ccn2ncnc(N[C@H]3CC[C@@H](N4CCN(C(=O)CCC(=O)N5CCC(CCN6CCN(c7ccc8c(c7)C(=O)N(C7CCC(=O)NC7=O)C8=O)CC6)CC5)CC4)CC3)c12 (some centres not stated)	µM	0.11
CC(=O)N1CCN([C@H]2CC[C@@H](Nc3ncnn4ccc(C(C)C)c34)CC2)CC1	µM	0.15

====

Target: von Hippel-Lindau disease tumor suppressor/Interleukin-1 receptor-associated kinase 3 (Homo sapiens) (UniProt Q9Y616+P40337)
Sequence (P40337 whole entry, looked up): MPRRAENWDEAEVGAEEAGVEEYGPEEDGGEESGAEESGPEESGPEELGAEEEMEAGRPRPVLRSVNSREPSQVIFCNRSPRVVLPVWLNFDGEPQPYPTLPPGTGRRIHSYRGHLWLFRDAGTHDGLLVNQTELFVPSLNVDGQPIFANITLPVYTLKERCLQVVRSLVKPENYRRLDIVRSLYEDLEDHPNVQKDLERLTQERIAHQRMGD
Sequence (Q9Y616 whole entry, looked up): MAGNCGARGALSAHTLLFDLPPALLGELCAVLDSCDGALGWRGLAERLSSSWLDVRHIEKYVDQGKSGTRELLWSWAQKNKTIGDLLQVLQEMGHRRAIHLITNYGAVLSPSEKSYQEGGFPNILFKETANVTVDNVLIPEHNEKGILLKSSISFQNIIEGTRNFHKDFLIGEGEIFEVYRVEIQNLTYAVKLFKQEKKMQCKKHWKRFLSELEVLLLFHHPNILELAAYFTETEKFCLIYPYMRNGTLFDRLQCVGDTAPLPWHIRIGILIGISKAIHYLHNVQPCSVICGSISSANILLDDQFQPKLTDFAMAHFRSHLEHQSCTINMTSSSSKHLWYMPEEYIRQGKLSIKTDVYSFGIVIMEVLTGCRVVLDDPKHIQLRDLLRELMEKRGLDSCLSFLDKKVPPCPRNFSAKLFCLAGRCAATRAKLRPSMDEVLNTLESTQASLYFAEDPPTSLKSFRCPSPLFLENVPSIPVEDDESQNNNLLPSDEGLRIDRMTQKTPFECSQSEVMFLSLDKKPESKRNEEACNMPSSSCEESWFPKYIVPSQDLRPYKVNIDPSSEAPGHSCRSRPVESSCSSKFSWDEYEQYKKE
Test: Protac activity at VHL/IRAK3 in LPS-induced human THP1 cells assessed as induction of IRAK3 degradation at 10 uM by Western blot analysis relative to control
Type: cell-based
Conditions: THP-1
EXPERIMENTAL READOUT: Activity (%)

SUBSTANCE SMILES	UNIT	Activity
Cc1ncsc1-c1ccc(CNC(=O)[C@@H]2C[C@@H](O)CN2C(=O)[C@@H](NC(=O)COCCOCCOCCOCC(=O)N2CCN([C@H]3CC[C@@H](Nc4ncnn5ccc(C(C)C)c45)CC3)CC2)C(C)(C)C)cc1	%	62
Cc1ncsc1-c1ccc(CNC(=O)[C@@H]2C[C@@H](O)CN2C(=O)[C@@H](NC(=O)COCCOCCOCCOCCOCCOCC(=O)N2CCN([C@H]3CC[C@@H](Nc4ncnn5ccc(C(C)C)c45)CC3)CC2)C(C)(C)C)cc1	%	43
Cc1ncsc1-c1ccc(CNC(=O)[C@@H]2C[C@@H](O)CN2C(=O)[C@@H](NC(=O)COCCOCCOCCOCCNC(=O)CCC(=O)N2CCN([C@H]3CC[C@@H](Nc4ncnn5ccc(C(C)C)c45)CC3)CC2)C(C)(C)C)cc1	%	0

(a) Cc1ncsc1-c1ccc(CNC(=O)[C@@H]2C[C@@H](O)CN2C(=O)[C@@H](NC(=O)CCCNC(=O)CCC(=O)N2CCN([C@H]3CC[C@@H](Nc4ncnn5ccc(C(C)C)c45)CC3)CC2)C(C)(C)C)cc1
(b) Cc1ncsc1-c1ccc(CNC(=O)[C@@H]2C[C@@H](O)CN2C(=O)[C@@H](NC(=O)COCCOCCOCCOCCOCC(=O)N2CCN([C@H]3CC[C@@H](Nc4ncnn5ccc(C(C)C)c45)CC3)CC2)C(C)(C)C)cc1
Thinking about recorded Activity values, which is higher, a or b ? # reply format: chosen label b
